Listing of recorded t½ by entry.
# Measured Target: T1, mouse IL-25 expressed with a C-terminal myc-myc-hexahistidine tag (mouse)
# T1 construct: also called Mouse IL-25-MMH; mIL-25-MMH
# T1 chain: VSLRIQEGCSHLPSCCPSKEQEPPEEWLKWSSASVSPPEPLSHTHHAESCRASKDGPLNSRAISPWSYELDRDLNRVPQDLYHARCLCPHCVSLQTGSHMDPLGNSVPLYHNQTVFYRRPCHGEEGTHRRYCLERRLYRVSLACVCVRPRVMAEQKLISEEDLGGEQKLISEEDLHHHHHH
# Protocol: SPR Biacore, antibody captured, 37C;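 further: Real-time sensorgrams of IL-25-MMH binding to purified anti-IL-25 antibodies, rate constants obtained by fitting a 1:1 binding model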
I only need the number, in min, no unit after it.

Binder: H4H10897P (antibody, human IgG4, V domains shown, H4H prefix = human IgG4 Fc) VH: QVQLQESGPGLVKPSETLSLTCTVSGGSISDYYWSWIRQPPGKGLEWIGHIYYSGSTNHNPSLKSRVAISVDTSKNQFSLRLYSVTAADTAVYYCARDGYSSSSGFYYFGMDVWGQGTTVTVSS VL: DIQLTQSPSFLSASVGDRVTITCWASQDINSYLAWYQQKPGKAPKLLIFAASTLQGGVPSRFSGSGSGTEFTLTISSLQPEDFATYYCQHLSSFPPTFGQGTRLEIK
t½, min: 1.8

Per the record, H4H10863P (antibody, human IgG4, V domains shown, H4H prefix = human IgG4 Fc) VH: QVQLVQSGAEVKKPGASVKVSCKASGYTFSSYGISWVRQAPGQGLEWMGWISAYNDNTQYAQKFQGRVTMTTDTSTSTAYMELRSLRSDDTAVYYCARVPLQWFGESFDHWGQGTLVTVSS VL: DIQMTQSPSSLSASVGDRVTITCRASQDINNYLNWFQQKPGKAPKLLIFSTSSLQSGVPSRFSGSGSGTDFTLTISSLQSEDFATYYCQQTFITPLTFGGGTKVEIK has t½ of 76
